System: IGROV1 ovarian
Assay: NCI-60 one-dose screen, 48 h (100 = growth as untreated, 0 = no growth, -100 = all killed)
Conditions: 10 µM unless noted
Description: Growth inhibition of the IGROV1 human tumor cell line is measured as a screen for anti-cancer activity. Cells are grown in 96 well plates and exposed to the test compound for 48 hours. Compounds are tested at a single concentration, which is 10^-5 M for most compounds. The reported endpoint is percent growth (GI% or GIPRCNT), where numbers from 0 - 100% represent growth inhibition, and numbers from -100% - 0 represent cell death. For example, a value of 40 represents 60% growth inhibition. […]
About 83,000 compounds went through this panel and 20% of them were active in at least one assay; those are over-represented in the sample as a whole.
Could you please report measured growth for the items listed next?
Numbers only, in %.

Please review the following examples before continuing.
# molecule, unitLabel, growth
measured = [
    ("CN1CCN(c2ccc(NC(=O)c3cncnc3Nc3ccc(OCc4ccccn4)c(Cl)c3)cc2)CC1", "%", 79.4),
    ("CC(=O)Cc1nsc(NC(=O)c2cc(-c3cc(Cl)cc(Cl)c3)oc2C)n1", "%", 102),
    ("CCOC(=O)c1c2c(n3ccc(C)cc13)C(=O)c1ccccc1C2=O", "%", 78),
    ("O=C1c2c(c3c4ccc(Br)cc4oc3c3[nH]c4ccccc4c23)C(=O)N1O", "%", 25.3),
    ("N#Cc1c(-c2ccc(Cl)cc2)nc(NN=Cc2cccc(O)c2)nc1N1CCOCC1", "%", 64.9),
]

For every item in the list below, what is its measured growth?
1. COc1cc(/C=C/C(=O)c2cccc(Nc3nc(Nc4ccccc4)nc(Nc4ccccc4)n3)c2)cc(OC)c1OC
2. CN(C)C1CCN(Cc2ccc(NC(=O)c3cncc(C#Cc4cnc(N)c5ncccc45)c3)cc2C(F)(F)F)CC1
3. CCOC(=O)c1[nH]c(=O)c2c(C)nc(-c3ccccc3)cc2c1O
4. Cc1ccc(-c2nn(-c3ccccc3)cc2C=C2C(=O)ON=C2C(C)C)cc1

1. 37.3
2. 112
3. 1.43
4. 54.7

====

test system: SF-295 CNS; experiment: NCI-60 one-dose screen, 48 h (100 = growth as untreated, 0 = no growth, -100 = all killed); details: 10 µM unless noted
This is part of a sample that, as a whole, favours compounds with a hit. Of some 83,000 tested, about 20% had one in any assay.
measurementLabel: growth (%)
Answers are plain numbers, in %.

Please review the following examples before continuing.
# compound, targetOrTestSystem, unitLabel, growth
rows = [
    ("CCCCCCC1(C)NCCO1 (stereo not given)", "SF-295 CNS", "%", 102),
    ("O=c1c2cc(-c3ccccc3)sc2nc2sc(-c3ccccc3)nn12", "SF-295 CNS", "%", 98.8),
    ("COc1ccc2[nH]cc(C(c3cc(F)cc(F)c3)c3c[nH]c4ccc(OC)cc34)c2c1", "SF-295 CNS", "%", 79.1),
    ("COc1cc(NC(C)CCCNC(C)C)c2ncccc2c1OC (stereo not given)", "SF-295 CNS", "%", 99.9),
]

For every item in the list below, what is its measured growth?
1. CN(C)CCCC1(c2ccc(F)cc2)OCc2cc(-c3cncc4ccccc34)ccc21 (stereo not given)
2. Nc1nc2c([nH]1)c1[nH]c3ccccc3c1c1[nH]c3ccccc3c21

1: 17.8; 2: 42.8

For every item in the list below, what is its measured growth?
1. CCOC(=O)c1cnc2ccccc2c1Cl
2. Cc1nc2sc(C(=O)Nc3cccc(Cl)c3C)c(N)c2cc1C(=O)c1ccccc1
3. Cc1ccc(-c2csc(NC(=O)CN3CCN(c4cc5c(cc4F)c(=O)c(C(=O)O)cn5C4CC4)CC3)n2)cc1
4. OCCNCCCOc1ccc2ncnc(Nc3ccc(Oc4cccc(C(F)(F)F)c4)c(Cl)c3)c2c1

[107, 1.83, -2.97, 39.7]

====

test system: OVCAR-8 ovarian; assay: NCI-60 one-dose screen, 48 h (100 = growth as untreated, 0 = no growth, -100 = all killed); conditions: 10 µM unless noted
Compounds without any hit were thinned out: in the full panel of roughly 83,000, 20% have a hit.
measurementLabel: growth (%)
Give bare numbers, in %.

Please review the following examples before continuing.
# compound, unitLabel, growth
rows = [
    ("CC(C)(C)n1cc(-c2ccnc(NCCNS(=O)(=O)c3cccc(F)c3)c2)c(-c2ccccc2)n1", "%", 87.9),
    ("C1=CN2CC(c3ccccc3)=NNC2c2ccccc21 (stereo unspecified)", "%", 92),
    ("O=C(O)c1ccc(-n2cc(/C=N/Nc3ccc(F)cc3)c(-c3cc4ccccc4oc3=O)n2)cc1", "%", 84.5),
    ("CN(CCn1sc(=O)n(Cc2ccccc2)c1=O)Cc1ccc2c(Cl)cc(Cl)c(O)c2n1", "%", 32.7),
    ("N#CC1C=CN(CC(N)=O)c2ccc3cccnc3c21 (stereo unspecified)", "%", 98.1),
]

For every item in the list below, what is its measured growth?
1. CC(C)CCNC(=O)Cn1cccc(NC(=O)OCc2ccccc2)c1=O
2. CCOC(=O)C1=C(NC)OCC1=O
3. O=c1oc2ccccc2cc1C1=NN=C(SCc2ccccc2)SC1

1: 104; 2: 98.6; 3: 101

====

Could you please report measured growth for the items listed next?
tested on: MCF7 breast; assay: NCI-60 one-dose screen, 48 h (100 = growth as untreated, 0 = no growth, -100 = all killed); settings: 10 µM unless noted
Compounds without any hit were thinned out: in the full panel of roughly 83,000, 20% have a hit.
Answers are plain numbers, in %.

Please review the following examples before continuing.
# compound, growth / %
rows = [
    ("CCCCN1C(=O)/C(=c2\\sc3n(c2=O)C2C(NN=3)N(CC)C(=O)N2CC)c2ccccc21 (centres undefined)", 5.32),
    ("CN1CCN(c2ccc(C(=O)Nc3cccc(C#Cc4cccc5[nH]nc(N)c45)c3)cc2C(F)(F)F)CC1", -71.6),
    ("O=[N+]([O-])C1C(c2ccccc2)C12c1ccccc1-c1ccccc12 (centres undefined)", 9.88),
    ("O=C1/C(=C/c2ccc(Cl)cc2)COc2ccc(O)cc21", 5.46),
    ("OCCCC1CCN(C(Cc2ccccc2)c2ccccc2)CC1 (centres undefined)", 94.6),
    ("CCN(CC)c1ccc(/C=C/C(=O)c2ccc(Nc3nc(Nc4ccccc4)nc(Nc4ccccc4)n3)cc2)cc1", 29.2),
]

For every item in the list below, what is its measured growth?
1. COc1cc(OC)c2sc(-c3ccc(-n4cncc4-c4ccc(OC)c(OC)c4)cc3)nc2c1
2. O=C(Cn1cc(CN2C(=O)c3ccccc3S2(=O)=O)nn1)Nc1nc2ccccc2s1
3. COc1cccc([C@H]2c3[nH]c4ccccc4c3C[C@H]3C(=O)N(CCCCCCC(=O)NO)CC(=O)N23)c1

44.5
91.1
53.7

====

Could you please report measured growth for the items listed next?
Tested on: SK-MEL-28 melanoma
Experiment: NCI-60 one-dose screen, 48 h (100 = growth as untreated, 0 = no growth, -100 = all killed)
Settings: 10 µM unless noted
Protocol: Growth inhibition of the SK-MEL-28 human tumor cell line is measured as a screen for anti-cancer activity. Cells are grown in 96 well plates and exposed to the test compound for 48 hours. Compounds are tested at a single concentration, which is 10^-5 M for most compounds. The reported endpoint is percent growth (GI% or GIPRCNT), where numbers from 0 - 100% represent growth inhibition, and numbers from -100% - 0 represent cell death. For example, a value of 40 represents 60% growth inhibition. […]
Compounds without any hit were thinned out: in the full panel of roughly 83,000, 20% have a hit.
One number for each entry, in %.

Please review the following examples before continuing.
# compound, growth, %
rows = [
    ("COc1ccc(NC(=O)c2sc3nc(C)c(C(=O)/C=C/c4cccc(OC)c4)cc3c2N)cc1", 80.7),
    ("O=C(Nc1ncc(Cc2ccc(Cl)c(C(F)(F)F)c2)s1)c1ccc2nnsc2c1", 54.7),
    ("O=[N+]([O-])c1ccc(N/N=C(/C(=N/Nc2ccc([N+](=O)[O-])cc2)c2ccccc2)c2ccccc2)cc1", 121),
    ("C[C@@H]1CCC[C@H]1CC(N)C(=O)O (stereo not given in full)", 108),
]

We now examine a further compound.
Give the measured growth of `Cc1ccc(Sc2oc(-c3ccc(C)cc3)nc2[P+](c2ccccc2)(c2ccccc2)c2ccccc2)cc1` .
17

====

test system: KM12 colon; assay: NCI-60 one-dose screen, 48 h; conditions: 10 µM unless noted
The panel holds about 83,000 compounds, 20% with a hit somewhere; the sample as a whole holds those more often. Calls of active or inactive are those of the source. Rule for the calls: active = growth percent below 10; inactive = the rest.
Please reply with one of these outcomes: active, inactive

Completed entries (count: 2):
# compound, answerLabel
data = [
    ("CC(C)(C)[Si](C)(C)O[C@H]1C(=O)C=CN2CC=C[C@@H]12", "inactive"),
    ("Cn1c(O)c(C=NCCN=Cc2c(O)n(C)c(=O)n(C)c2=O)c(=O)n(C)c1=O", "inactive"),
]

Kindly provide the recorded test outcome for the following compound: `CC(=O)n1nc(C(=O)OC(C)C)c2cc(C)c(C)cc21`
inactive

Kindly provide the recorded test outcome for the following compound: `CCN(C(=O)N1CCN(c2cc3c(cc2F)c(=O)c(C(=O)O)cn3C2CC2)CC1)c1nc(-c2ccc(Cl)cc2)cs1`
inactive

Kindly provide the recorded test outcome for the following compound: `Cc1cc2c(O)c(-c3cc(Cl)ccc3Cl)c3sc(=O)oc3c2cc1C`
inactive

Kindly provide the recorded test outcome for the following compound: `O=C1/C(=C/c2ccccc2Br)COc2ccc(O)c(O)c21`
active

Kindly provide the recorded test outcome for the following compound: `O=S(=O)(NCCCNc1nccc(-c2c(-c3ccc(F)c(O)c3)nc3occn23)n1)c1ccccc1`
inactive

Kindly provide the recorded test outcome for the following compound: `Nc1c(C(=O)Nc2ccncc2)sc2nc3c(cc12)CCCCCC3`
inactive
